Test: Toxicity liver stage against HepG2, at 10uM
Type: cell-based
Set-up: test concentration 10 uM, cell line HepG2-A16-CD81EGFP
Settings: human, HepG2-A16-CD81EGFP cells; read-out: INHIBITION

Compound: CC(=O)N1CC(=O)N(c2ccsc2)CC12CCN(Cc1ccccn1)C2 (stereo unspecified)
cytotoxicity at 10 µM (%): 13

Compound: O=C(NCc1cccnc1)C1=NN(c2ccccc2)C(=O)CN1
cytotoxicity at 10 µM (%): 12.3

Compound: NCCCC(=O)NCC1(O)CCCN(c2ccnc3cccnc23)C1 (stereo unspecified)
cytotoxicity at 10 µM (%): 3.71

Compound: Cc1cc(CN(C)C(=O)c2cccc(CCC(C)(C)O)c2)no1
cytotoxicity at 10 µM (%): -2.02

Compound: Cc1ccc(S(=O)(=O)NC(=O)CCc2ccco2)cc1N(C)C
cytotoxicity at 10 µM (%): -0.845

Compound: O=C(Nc1cccnc1)[C@@H]1C[C@H]2OCC[C@H]2N(Cc2nccs2)C1
cytotoxicity at 10 µM (%): 5.02

Compound: Cc1nc(C)n(CCNC(=O)C2(C)CC(c3ccccc3)=NO2)n1 (stereo unspecified)
cytotoxicity at 10 µM (%): 7.92

Compound: O=C1COC2(CCN(C(=O)c3ccoc3)CC2)CN1Cc1cccnc1
cytotoxicity at 10 µM (%): 5.29

Compound: CCc1nc(-c2noc3ccc(C(=O)NCCN(C)C)cc23)co1
cytotoxicity at 10 µM (%): -150

Compound: O=C(CCOc1ccccc1F)NC1CCCN(c2ccccn2)C1 (stereo unspecified)
cytotoxicity at 10 µM (%): -5.67

Compound: O=C(O)c1ccc(S(=O)(=O)Nc2ccccc2F)c(F)c1
cytotoxicity at 10 µM (%): 5.51

====

Assay: Toxicity liver stage against HepG2, at 10uM
Format: cell-based
Set-up: test concentration 10 uM, cell line HepG2-A16-CD81EGFP
Details: human, HepG2-A16-CD81EGFP cells; read-out: INHIBITION

Molecule: Fc1cnc(N2CCO[C@H]3CN(CC4CCCCC4)C[C@H]32)nc1
cytotoxicity at 10 µM (%): 6.61
--
Molecule: O=C(c1ncccn1)N1C[C@H]2CCC[C@@]2(COc2ccccn2)C1
cytotoxicity at 10 µM (%): 5.29
--
Molecule: Cc1cccc(CN2CCc3c(CNC(=O)CC#N)nn(C)c3C2)n1
cytotoxicity at 10 µM (%): 4.89
--
Molecule: C1CN(Cc2noc(C3CC3)n2)CCN(Cc2nnc(C3CC3)o2)C1
cytotoxicity at 10 µM (%): -10.9
--
Molecule: CN(C(=O)Nc1cccnc1)C1CCN(c2ccc(Cl)cc2)CC1
cytotoxicity at 10 µM (%): -2.46
--
Molecule: Cc1cccc(=O)n1CCC(=O)N1CC[C@@](O)(C2CCC2)[C@H](C)C1
cytotoxicity at 10 µM (%): 5.8
--
Molecule: COCCNC(=O)Nc1cc2c(cc1SC)OCCO2
cytotoxicity at 10 µM (%): -3.59
--
Molecule: O=C1CC2(CCN(C(=O)C3CCCCC3)C2)Nc2ccccc2N1 (stereo unspecified)
cytotoxicity at 10 µM (%): 9.13
--
Molecule: CC(C(=O)Nc1ccccn1)n1ccc(C(F)(F)F)n1 (stereo unspecified)
cytotoxicity at 10 µM (%): 2.74
--
Molecule: c1ccc(CN2CCC3(CC2)Nc2ccccc2CO3)cc1
cytotoxicity at 10 µM (%): -0.719
--
Molecule: CCN(CCN1CCCCCC1)C(=O)c1cnc(-c2cccnc2)nc1
cytotoxicity at 10 µM (%): 11.4
